Data origin, for the record: patent US20100062131A1

biological target: human bitter receptor TAS2R39 (Homo sapiens); construct: expressed in transfected cells; host or cells: HEK293 (tetracycline/doxycycline-inducible expression; blasticidin, geneticin and hygromycin selection); test: Inhibition of ECG stimulation of TAS2R39, intracellular calcium (Fluo4-AM fluorescence) assay; type: cell-based; settings: HEK293 cells expressing TAS2R39; test solution 0.5 mM ECG and 10 mM test compound in Tyrodes buffer; percentage reduction of ΔF vs ECG alone
Sequence (P59534 whole entry): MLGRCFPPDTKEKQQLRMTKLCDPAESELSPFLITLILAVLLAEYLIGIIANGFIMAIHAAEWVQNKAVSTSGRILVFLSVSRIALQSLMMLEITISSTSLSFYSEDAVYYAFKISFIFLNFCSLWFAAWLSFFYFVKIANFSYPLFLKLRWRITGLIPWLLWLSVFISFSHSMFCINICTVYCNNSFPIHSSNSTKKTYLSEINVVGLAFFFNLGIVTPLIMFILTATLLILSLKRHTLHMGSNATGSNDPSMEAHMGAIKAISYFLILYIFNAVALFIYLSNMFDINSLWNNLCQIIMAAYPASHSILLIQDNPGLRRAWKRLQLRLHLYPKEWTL
readout.label: % inhibition of TAS2R39 (%)
Just the number please, in %, no unit attached.

molecule	value.measured
O=C(O)/C=C/c1ccc(O)cc1 [4-hydroxycinnamic acid]	40
COc1cccc(C(=O)O)c1 [3-methoxybenzoic add, reference compound]	5
COc1cc(/C=C/C(=O)O)cc(OC)c1O [4-hydroxy-3,5-dimethoxycinnamic acid, 4-hydroxy-3,5-dimethoxycinnamic acid]	65
O=C(O)CCc1ccc(O)c(O)c1 [3-(3,4-dihydroxyphenyl) propanoic acid, 3-(3,4-dihydroxyphenyl)propanoic acid]	30

What measured % inhibition of TAS2R39 is associated with N[C@@H](Cc1ccccc1)C(=O)O [Phenylalamine, reference compound] on human bitter receptor TAS2R39 (Homo sapiens)?
0

Again, but for O=C(O)Cc1ccc(O)c(O)c1 [3,4-dihydroxyphenylacetic acid, reference compound]
15

Another molecule to check: COc1cc(CCC(=O)O)cc(OC)c1OC [3-(3,4,5-trimethoxyphenyl)propanoic acid]
35
